- experiment description: inducers of V. cholerae light production, dose response, BH1578, luxS and cqsA deficient, dry powder (AID 651854)
- test conditions: V. cholerae BH1578 lux reporter, luminescence, 6 h; at 35 µM (top of the series)
Below is a list of entries, each paired with its recorded light induction value.
// note: answer is a bare numeric in %

Task: Consider the molecule shown here: CO[C@@H]1CC[C@@H]2CCOc3ccc(C#N)cc3C(=O)N(C)C[C@H](C)C(=O)N(C)C[C@H]1O2 What is its recorded light induction?
Result: 0.497

====

- experiment description: inducers of V. cholerae light production, dose response, BH1578, luxS and cqsA deficient, dry powder (AID 651854)
- test conditions: V. cholerae BH1578 lux reporter, luminescence, 6 h; at 35 µM (top of the series)
List of light induction values.
// return numeric value only (unit: %, not printed)

Use the examples below as a reference point.
{"smiles representation": "CO[C@@H]1CC[C@H]2CCOc3ccc(C#N)cc3C(=O)N(C)[C@H](C)C(=O)N(C)C[C@@H]1O2", "result number": 0.313}
{"smiles representation": "CCn1nnc(NCc2ccc(N3CCCC3)cc2)n1", "result number": 10.7}
{"smiles representation": "COCC(=O)N[C@@H]1C=C[C@H](CC(=O)N2CCCCC2)O[C@@H]1CO", "result number": 0.262}
{"smiles representation": "O=[N+]([O-])c1ccc(N2CCOCC2)c2c1no[n+]2[O-]", "result number": 0.322}
{"smiles representation": "Cc1noc(C)c1NC(=O)N(C)C[C@H]1Oc2ccc(NC(=O)CCC(F)(F)F)cc2C(=O)N([C@H](C)CO)C[C@H]1C", "result number": 0}
{"smiles representation": "CO[C@H]1CN(C)C(=O)c2cc(NS(=O)(=O)c3c(C)noc3C)ccc2OC[C@H](C)NC[C@@H]1C", "result number": 0}
{"smiles representation": "C[C@H](NC(=O)C[C@@H]1CC[C@H]2[C@H](COc3ccc(NS(=O)(=O)c4ccc(Cl)cc4)cc3C(=O)N2C)O1)c1ccccc1", "result number": 0.158}
{"smiles representation": "CCC(=O)Nc1nn(C)c2nc3cc(C)ccc3cc12", "result number": -0.824}
{"smiles representation": "Cc1ccccc1-c1ccc2c(c1)O[C@H](CN(C)Cc1ccc(C(=O)O)cc1)[C@@H](C)CN([C@H](C)CO)S2(=O)=O", "result number": -0.148}

Task: # light induction lookup, item CCOC(=O)c1cc2c(c(-c3cccc(Br)c3)n1)[C@@H](CCO)N(C(=O)NC(C)C)C2
Result: 0.322
